Reference source: the supplement of paper PMC11865577

tested on: G-clamp-N3 (biotin conjugate); assay: pull-down binding Z-score (relative to library population); higher = stronger binding; details: RNA library: Library-1 (pre-miRNA loops + repeats)
I'd be grateful if you could share measured pull-down binding Z-score for these entries.

Record excerpt, results attached:
AGUUGAACACUUGUUGGGACAACCU [hsa-mir-4421]    -0.336
AGGGACCCCCGGAGUCUGUCACGGUCUCA [hsa-mir-6784]    -0.402
GAUUCGCUUUACUUAUGACGAAUC [hsa-mir-382]    -0.449
AACUCCUGCGAGUCCCUGGAGUU [hsa-mir-1258]    0.214
UCCAACCUGAAAUCCUUCUGUAGGUUGAG [hsa-mir-5702]    1.18
UUUGCCAUUAAAAGUAACGACAAA [hsa-mir-548a-1]    -0.965
ACUUUCUGUUUGAAAGAAAACAAAGU [hsa-mir-519e]    -0.167
AAUCCCUCUCUUUCUAGUUCUUCCUAGAGUGAGGAAAA [hsa-mir-320b-1]    -1.69
CCCUUGUCUUCCCAGAG [hsa-mir-4739]    -1.22
AGGUUUGUGUCCAAUACAGUCCACACCU [hsa-mir-3200]    -0.861

Give me pull-down binding Z-score for each of these sequences, listed below.
1. CAGUGAGCUAUGAUCAUGUCCCUG [hsa-mir-1254-2]
2. GCUGGUCGCGGGUUGUGGGGUUUAGGUCACCGGC [hsa-mir-5091]
3. GCAUAUAGAGUAUAUGC [hsa-mir-4657]
4. GUCCUGCCCUCACUGGGAACCCCCUUCCCUCUGGGUACCAG [hsa-mir-1324]
5. UGAUUUGUGACUUAAGAUUAAAAUCA [hsa-mir-23b]
6. CAGCUUGCUCUGCUUU [hsa-mir-4303]
7. AACAACAGCAUCAGAAGCAACAUCAGCUUUAGUU [hsa-mir-569]

1: 0.526; 2: 1.7; 3: 0.625; 4: -0.948; 5: -0.478; 6: 0.072; 7: -1.03

Give me pull-down binding Z-score for each of these sequences, listed below.
1. UGGAGUCAGUAUUGGUCUGGCCA [hsa-mir-4255]
2. AUCCCUUAGAUGCUAAGAUGGGGAU [hsa-mir-145]
3. ACCUUCCAAGGCUCAGAAGGU [hsa-mir-4650-1_4650-2]

0.114
1.18
-0.155

Give me pull-down binding Z-score for each of these sequences, listed below.
1. UCUGCUUUAUUUCAUCAAAGCAGA [hsa-mir-4773-1]
2. UUGGUCCGUAUGUGUGGUGCCACCGG [hsa-mir-1908]

[-0.484, -0.147]

Record request: pull-down binding Z-score value, item UGUGGCCUUUUUGCCUUUUCUAAAGGCCACAU [hsa-mir-1250] 0.00873

---

system: TO-N3-2 (biotin conjugate); test: pull-down binding Z-score (relative to library population); higher = stronger binding; conditions: RNA library: Library-2
Kind request: treat -0.6 as inclusive, so pull-down binding Z-score at -0.6 or higher is Fulfilled, anything lower is Not fulfilled.

UGGACCUCAGGGAAGAGGCUG [hsa-mir-4673]    Not fulfilled
CCUCCCUAGGGGAUCCCAGGUAGG [hsa-mir-4688]    Fulfilled
CCCAGUGCGGGG [IAV_invivo_NP_5_Motif_5+IAV_invivo_NP_5_Motif_5]    Not fulfilled
GGACCUGAGCGCACCUGUUGUCU [SHAPE_invivo_SARS-CoV-2_Motif_351]    Fulfilled
GCUGCUGGUGCUCAUCUCAGC [hsa-mir-6877]    Fulfilled
GAGCCCUGAGGGGCUC [hsa-mir-6087]    Fulfilled
GGCAGCGAGCC [IAV_invivo_NP_5_Motif_25+IAV_invivo_NP_5_Motif_25]    Not fulfilled
UGAGACCUGGUGCAGAACGGGAAGGCGA [hsa-mir-551b]    Fulfilled
AUAUGUUUACACCACUAAUUCAACCUAUUGGUGCUUUGGACAUAU [DMSMaPseq_invitro_SARS-CoV-2_Motif_171]    Not fulfilled
GGUCUCCGACGGAGGCC [IAV_invivo_PB1_2_Motif_32+IAV_invivo_PB1_2_Motif_32]    Not fulfilled

Consider the additional sequence presented here.
Check the entry CAAAUCGACUGUCCAAUGGAUUUG [hsa-mir-133a-2] : does pull-down binding Z-score equal or exceed -0.6? Fulfilled

---

I'd be grateful if you could share measured pull-down binding Z-score for these entries.
tested on: TO-3-N3 (biotin conjugate); assay: pull-down binding Z-score (relative to library population); higher = stronger binding; conditions: RNA library: Library-2
One number for each entry.

Record excerpt, results attached:
AGGCUCUGGGUCCGGCUUACUCCCUAGCUUACUGUCCUCAGAACCC [hsa-mir-6071]    -0.173
GAACACUAUUCCAUUGUGUUC [hsa-mir-588]    -0.971

Give me pull-down binding Z-score for each of these sequences, listed below.
1. GCUGUGAGUUGGAUACUUACCUG [U1snRNP5ss-13]
2. AUGUUUAUUGUAAAGAUACUUU [hsa-mir-1305]
3. UAUGCCAUUAAAAGUAAUGGUAAA [hsa-mir-548aj-1]
4. CACUCAGUAAAUAUUUGUUGAGUG [hsa-mir-1271]

1: 0.0032; 2: -0.643; 3: -0.859; 4: -0.368

---

system: TO-3-N3 (biotin conjugate); assay: pull-down binding Z-score (relative to library population); higher = stronger binding; conditions: RNA library: Library-2
Kind request: treat 0.2 as inclusive, so pull-down binding Z-score at 0.2 or higher is Met, anything lower is Not met.

Check out these entries, answers already filled in.
GCAGAAAUCACUCCAGGAGCAACUGA [hsa-mir-936]    Not met
CUCAGGACAGCGGGUGUCAGCUUGCCUGAC [hsa-mir-6859-1_6859-3_6859-2_6859-4]    Met
CUCAACUCUUGGUCCUCUGAG [hsa-mir-3165]    Not met
UCAAUUAUUAUAAGAAAGUUGA    Not met
UGCUGUUGCUGUGAAAGCUGA [hsa-mir-6823]    Not met

Check the entry CAGGCCAUCACAAAUGCCACAGCUUGAGUAAACUGUGCAGCCUG [3-way model-2_DENV2] : does pull-down binding Z-score equal or exceed 0.2? Not met

Check the entry CAGGCUGCUAAACAACAGAACGAGCACUG [hsa-mir-378f] : does pull-down binding Z-score equal or exceed 0.2? Not met

Check the entry GGACAGGGAUUCUUUUCACUGUU [hsa-mir-599] : does pull-down binding Z-score equal or exceed 0.2? Not met

Check the entry GAGGUCUUCCCAUGCUAAGAAGUCCUC [hsa-mir-2116] : does pull-down binding Z-score equal or exceed 0.2? Met

Check the entry GGAAUUUGAACC [IAV_invivo_PB2_1_Motif_28+IAV_invivo_PB2_1_Motif_28] : does pull-down binding Z-score equal or exceed 0.2? Met

---

system: TO-N3 (biotin conjugate); experiment: pull-down binding Z-score (relative to library population); higher = stronger binding; settings: RNA library: Library-2
endpoint: pull-down binding Z-score

Record excerpt, results attached:
AGUCACUUACACUACAUGUCACU [hsa-mir-892a]    -1.08
CAGUGGUGCCAUCUCCCCUG [hsa-mir-5008]    -0.122
UUCCGGUGAUUAUCACAGCCAUGCCUUUACCUCCAGAA [hsa-mir-4493]    -0.594

Give me pull-down binding Z-score for each of these sequences, listed below.
1. ACCACCAAUUAAAGAUUUUGGUGGU [SHAPE_invitro_SARS-CoV-2_Motif_434]
2. CUGUUGUUUCAGCUCGACAACAACAG [hsa-mir-3937]

1. -0.123
2. -0.333

---

test system: TO-3-N3-2 (biotin conjugate); test: pull-down binding Z-score (relative to library population); higher = stronger binding; settings: RNA library: Library-2
endpoint: pull-down binding Z-score
Numbers only.

Record excerpt, results attached:
CCCUGGGGAGCUGCUGCAGGCAGCAGGUGGGCGGGACGCCAGCAGGCUGUCUAGCUGUUCCCAUGAUGG [hsa-mir-6843]    0.49
UACAUAGUUCAUGCUGAGGCCGGGAUUUCAUGCAGAAAACUGGUUGCAAAAGGUGCUGAAG [hsa-mir-6085]    0.378
AUAUAAGGGAAGGCAUUAUAG [hsa-mir-3117]    0.0974
AGGGGUCAUAUCUCUUCUCAGGGAAAGCAGGAGCCCUUCAGCAGGGUCAGGGCCCCU [hsa-mir-6891]    0.263

We next turn to a different sequence, shown below.
Query the reported pull-down binding Z-score for TO-3-N3-2 (biotin conjugate); item: UAUGCAAAGCUCUGACAGUGUUUCACUUGCUA [hsa-mir-7848] -0.145

---

I'd be grateful if you could share measured pull-down binding Z-score for these entries.
tested on: TO-N3 (biotin conjugate); assay: pull-down binding Z-score (relative to library population); higher = stronger binding; settings: RNA library: Library-2
Answers are plain numbers.

GCAGGUAGCUUUUUGAGAUCUACUGC [hsa-mir-106a]    -0.711
UGCUGUUGUUAAAAUUUAUUGUCCAGCA [SHAPE_invitro_SARS-CoV-2_Motif_28]    -0.582
CACAAGGCAGAUGGGCUAUAUAAACGUUUUCGCUUUUCCGUUUACGAUAUAUAGUCUACUCUUGUG    -0.787
AGGCACAUAUGUGAACAUUGUACCA [hsa-mir-5707]    0.0876
GAAGCGAGAUGUUUGUCUAAA [hsa-mir-6835]    0.398
AUGAGGUUUAGAAGAGCUUUUGGUGAAUACAGUCAUGUAGUUGCCUUUAAUACUUUACUAUUCCUUAU    -0.296

Give me pull-down binding Z-score for each of these sequences, listed below.
1. UGGGUAGGAAUAUCCUGGAUCCCCU [hsa-mir-3189]
2. AGGGUGGAGCCCACUGUGGCUCCUGACUCAGCCCU [hsa-mir-6893]

1. 0.102
2. -0.0778

Give me pull-down binding Z-score for each of these sequences, listed below.
1. CAUGCAGGCCACACUGACGGUAACGUUGCAGG [hsa-mir-431]
2. UUUAAGACACCCUGUACCUUAAA [hsa-mir-3121]

1.08
-0.415
